The reported numbers originate from PubChem BioAssay (NCI).

System: U251 CNS
Test Description: NCI-60 one-dose screen, 48 h
Stated Conditions: 10 µM unless noted
Protocol: Growth inhibition of the U251 human tumor cell line is measured as a screen for anti-cancer activity. Cells are grown in 96 well plates and exposed to the test compound for 48 hours. Compounds are tested at a single concentration, which is 10^-5 M for most compounds. The reported endpoint is percent growth (GI% or GIPRCNT), where numbers from 0 - 100% represent growth inhibition, and numbers from -100% - 0 represent cell death. For example, a value of 40 represents 60% growth inhibition. […]
About 83,000 compounds went through this panel and 20% of them were active in at least one assay; those are over-represented in the sample as a whole. Active and inactive are the calls of the source. The calls were made as follows: active = growth percent below 10; inactive = the rest.
Outcomes: label 1 (active), label 0 (inactive)

>  <Compound>
O=C1Nc2ccccc2/C1=C\c1c(-c2ccccc2)nc2ccccn12

>  <Label Value>
label 0

$$$$
>  <Compound>
CCc1ccc(-c2cn3ccnc3c(-c3ccc4ncn(Cc5ccccc5)c4c3)n2)cc1

>  <Label Value>
label 0

$$$$
>  <Compound>
COc1cc(/C=C\C(=O)O)ccc1OCc1ccccc1

>  <Label Value>
label 0

$$$$
>  <Compound>
CCOC(=O)[C@@H](C)C[C@H](Cc1ccccc1)NC(=O)c1csc([C@@H](C[C@H](C(C)C)N(C)C(=O)[C@@H](NC(=O)[C@H]2C[C@H](O[Si](C)(C)C(C)(C)C)CCN2C)C(C)C)OC(C)=O)n1

>  <Label Value>
label 1

$$$$
>  <Compound>
CCN(CC)CCCC(C)Nc1cc(O)cc2cccnc12 (centres undefined)

>  <Label Value>
label 0

$$$$
>  <Compound>
COc1ccc(Cc2cnc(NC(=O)c3ccc4c(c3)OCCO4)s2)cc1

>  <Label Value>
label 0

$$$$
>  <Compound>
CCCCN1C=CCN(CCCC)C1

>  <Label Value>
label 0

$$$$
>  <Compound>
Cc1nn(-c2ccccc2)c(Oc2c(Cl)cccc2Cl)c1/C=N/N=c1\sc2ccccc2n1C

>  <Label Value>
label 0

$$$$
>  <Compound>
COc1cccc(C(=O)NNc2nc(Cl)nc(N3CCN(C(c4ccccc4)c4ccccc4)CC3)n2)c1

>  <Label Value>
label 0

$$$$

====

Test system: SW-620 colon
Test Description: NCI-60 one-dose screen, 48 h (100 = growth as untreated, 0 = no growth, -100 = all killed)
Stated Conditions: 10 µM unless noted
Experimental: Growth inhibition of the SW-620 human tumor cell line is measured as a screen for anti-cancer activity. Cells are grown in 96 well plates and exposed to the test compound for 48 hours. Compounds are tested at a single concentration, which is 10^-5 M for most compounds. The reported endpoint is percent growth (GI% or GIPRCNT), where numbers from 0 - 100% represent growth inhibition, and numbers from -100% - 0 represent cell death. For example, a value of 40 represents 60% growth inhibition. […]
Compounds without any hit were thinned out: in the full panel of roughly 83,000, 20% have a hit. Activity calls are given as the source filed them. The calls were made as follows: active = growth percent below 10; inactive = the rest.
Readout Kind: growth

>  <Entry Smiles>
COc1cccc(-c2cc(C(=O)Nc3ccc(/C=C/c4ccc(OC5CCN(C)CC5)cc4)cc3)ccc2OC)c1

>  <Measurement>
-60.5% (active)

$$$$
>  <Entry Smiles>
Cc1cc2nc3c4cc(C=O)ccc4n(CCN(C)C)c3nc2cc1C

>  <Measurement>
1.57% (active)

$$$$
>  <Entry Smiles>
Cc1ccccc1NS(=O)(=O)c1cccc(C(=O)Nc2ccc(Br)cc2)c1

>  <Measurement>
58.8% [25 µM] (inactive)

$$$$
>  <Entry Smiles>
O=C(NO)c1ccc(-n2nc(-c3ccccc3)c3ccccc32)cc1

>  <Measurement>
41.2% (inactive)

$$$$
>  <Entry Smiles>
Cn1ccnc1C(=O)/C=C/c1ccc(CC(=O)Nc2ccc(Cl)cc2)cc1

>  <Measurement>
7.1% (active)

$$$$

====

Recorded growth for the following compounds
Tested on: UO-31 renal
Test Description: NCI-60 one-dose screen, 48 h (100 = growth as untreated, 0 = no growth, -100 = all killed)
Stated Conditions: 10 µM unless noted
Compounds without any hit were thinned out: in the full panel of roughly 83,000, 20% have a hit.

>  <Compound>
COc1cc2nc(-c3ccc(Cl)cc3)cc(OCCCN3CCC(O)CC3)c2cc1OC

>  <Measurement Units>
%

>  <growth>
51.3

$$$$
>  <Compound>
ClC1=C(Br)C(Br)(Br)C(=C(Br)Br)C1(Br)Br

>  <Measurement Units>
%

>  <growth>
71.7

$$$$
>  <Compound>
CCOC(=O)c1cc(C(=O)c2ccc(OC)cc2)n2ccc(/C=C/c3cc[n+](CC(=O)c4ccc(OC)cc4)cc3)cc12

>  <Measurement Units>
%

>  <growth>
72.7

$$$$
>  <Compound>
N#Cc1c(NC(=O)NCc2ccccc2)sc2c1CCCCC2

>  <Measurement Units>
%

>  <growth>
46.7

$$$$
>  <Compound>
CCN(CC)c1ccc(C(=O)c2ccccc2)cc1

>  <Measurement Units>
%

>  <growth>
82

$$$$
>  <Compound>
COc1cc(NC(=O)CSc2nc3ccc(C)cc3c(=O)n2Cc2ccccc2)cc(OC)c1OC

>  <Measurement Units>
%

>  <growth>
71.4

$$$$
>  <Compound>
O=C1Nc2cc(Cl)ccc2/C1=C\c1c(-c2ccc(F)cc2)nc2ccccn12

>  <Measurement Units>
%

>  <growth>
28.7

$$$$
>  <Compound>
Cc1cc(C(=O)/C=C/c2ccc[nH]2)ccc1-n1ccc(C(F)(F)F)n1

>  <Measurement Units>
%

>  <growth>
-92.1

$$$$
>  <Compound>
Cc1nc(N)nc(N[C@@H](C)c2nc3cccc(NCc4ccc(C(=O)NO)cc4)c3c(=O)n2-c2ccccc2)n1

>  <Measurement Units>
%

>  <growth>
68.4

$$$$
>  <Compound>
COc1ccc2c(c1)C(=O)CC(c1ccccc1OC)O2 (centres undefined)

>  <Measurement Units>
%

>  <growth>
96.9

$$$$
>  <Compound>
COc1cc(C2C3CC4CCCC[C@H]4N3[C@@]3(C(=O)Nc4cc(Cl)ccc43)C2C(=O)c2nc3ccccc3[nH]2)cc(OC)c1OC (some centres undefined)

>  <Measurement Units>
%

>  <growth>
34.8

$$$$
>  <Compound>
Nc1c(C(=O)Nc2cccc3cnccc23)sc2nc3c(cc12)C(=O)CCC3

>  <Measurement Units>
%

>  <growth>
81.8

$$$$
>  <Compound>
Nc1c(S(=O)(=O)O)cc2c3c(cccc13)C(=O)OC2=O

>  <Measurement Units>
%

>  <growth>
86.7

$$$$
>  <Compound>
COc1ccc(N2CCN(c3ccc(NC4=C(Cl)C(=O)c5ncccc5C4=O)cc3)CC2)cc1

>  <Measurement Units>
%

>  <growth>
46.2

$$$$
>  <Compound>
O=S(=O)(NCCCNc1nccc(-c2c(-c3cccc(F)c3)nc3sccn23)n1)c1cccc(F)c1

>  <Measurement Units>
%

>  <growth>
28.2

$$$$
>  <Compound>
COc1cc(OC)cc(C(=O)C[n+]2cccc3cc[nH]c32)c1

>  <Measurement Units>
%

>  <growth>
71.2

$$$$
>  <Compound>
COc1ccc(C(=O)c2nc3ccccc3n2CC(=O)c2ccc(F)cc2)cc1

>  <Measurement Units>
%

>  <growth>
88.3

$$$$
>  <Compound>
CN(C)CC(O)c1ccc(/C=C/c2ccc(Cl)cc2)cc1 (centres undefined)

>  <Measurement Units>
%

>  <growth>
-67.2

$$$$
>  <Compound>
CCOC(=O)C1=C(C)NC(SCc2cc(=O)oc3ccc(F)cc23)=N[C@@H]1c1cccc2ccccc12

>  <Measurement Units>
%

>  <growth>
79.9

$$$$
>  <Compound>
COc1cc(C2=C(c3cn(C)c4ccccc34)COC2=O)cc(OC)c1OC

>  <Measurement Units>
%

>  <growth>
10.4

$$$$
>  <Compound>
CCOC(=O)c1cc(C(=O)c2ccc(OC)c(OC)c2)n2c1ccc1ccccc12

>  <Measurement Units>
%

>  <growth>
58.4

$$$$
>  <Compound>
O=C(Nc1cccc(C(=O)N2CCc3ccc(Cl)cc32)c1)c1ccco1

>  <Measurement Units>
%

>  <growth>
45.1

$$$$
>  <Compound>
O=C(c1ccccc1)N1N=C(c2ccc(-n3ccc(C(F)(F)F)n3)c(F)c2)CC1c1ccc[nH]1 (centres undefined)

>  <Measurement Units>
%

>  <growth>
90.4

$$$$
>  <Compound>
CCCCN1C=CCN(CCCC)C1

>  <Measurement Units>
%

>  <growth>
74.6

$$$$
>  <Compound>
Cc1ncc(C(=O)Nc2ccc(CN3CCN(C)CC3)c(C(F)(F)F)c2)cc1C#Cc1cnc(N)cc1C#N

>  <Measurement Units>
%

>  <growth>
-96.8

$$$$
>  <Compound>
CC(=O)O[C@@H]1C2CCC3C(CC[C@@]4(C)C3CC[C@@H]4C(C)N(C)C)[C@@]2(C)CC[C@@H]1NC(=O)C=C(C)C (some centres undefined)

>  <Measurement Units>
%

>  <growth>
6.19

$$$$
>  <Compound>
C=C(C)[C@@H]1CC[C@]2(C(=O)N3CCN(C)CC3)CC[C@]3(C)[C@H](CC[C@@H]4[C@@]5(C)CC[C@H](O)C(C)(C)[C@@H]5CC[C@]43C)[C@@H]12

>  <Measurement Units>
%

>  <growth>
-86.1

$$$$
>  <Compound>
COc1ccc(/C=C2\COc3ccc(-c4ccccc4)cc3C2=O)c(OC)c1

>  <Measurement Units>
%

>  <growth>
86.2

$$$$
>  <Compound>
CC1=C(C(=O)/C=C/c2ccc(N(C)C)cc2)C(c2ccccc2)NC(=S)N1 (centres undefined)

>  <Measurement Units>
%

>  <growth>
75.4

$$$$
>  <Compound>
COc1cc2c(c(OC)c1OC)CCC(c1cccc(NC(=O)c3cccc(Br)c3)c1)O2 (centres undefined)

>  <Measurement Units>
%

>  <growth>
79

$$$$
>  <Compound>
COc1cc(/C=C/c2cc(O)c(C(C)=O)c(O)c2)cc2c1O[C@]1(C)CC[C@@H](O)C(C)(C)[C@H]1C2

>  <Measurement Units>
%

>  <growth>
29.7

$$$$
>  <Compound>
CNCCOc1nc2c3cnccc3cc(-c3cc(OC)c(OC)c(OC)c3)c2c2ccncc12

>  <Measurement Units>
%

>  <growth>
-42.7

$$$$
>  <Compound>
CCNC(=O)Oc1ccc(/C(=C(\C)c2ccccc2)c2ccc(OCCN3CCCCC3)cc2)cc1

>  <Measurement Units>
%

>  <growth>
41.2

$$$$
>  <Compound>
O=C(N/N=C/c1ccc(Oc2ccccc2)cc1)c1cnn2c1NC(c1ccccc1)C2 (centres undefined)

>  <Measurement Units>
%

>  <growth>
60.7

$$$$
>  <Compound>
NC(=O)CSSCC(N)=O

>  <Measurement Units>
%

>  <growth>
93

$$$$
>  <Compound>
O=C1Nc2cc(-c3cccc(O)c3)ccc2/C1=C/c1ccc[nH]1

>  <Measurement Units>
%

>  <growth>
-1.56

$$$$
>  <Compound>
O=C(Nc1cccc(C2=NCCN2)c1)c1ccc(-c2ccc(C(=O)Nc3cccc(C4=NCCN4)c3)cc2)cc1

>  <Measurement Units>
%

>  <growth>
99.1

$$$$
>  <Compound>
Cc1ccc(-n2cc(-c3ccccc3)c3c2N=NN2CCN=C32)cc1

>  <Measurement Units>
%

>  <growth>
74.5

$$$$
>  <Compound>
COc1cccc(-c2nc3occn3c2-c2ccnc(NCCNS(=O)(=O)c3cccc4ccccc34)n2)c1

>  <Measurement Units>
%

>  <growth>
85.7

$$$$
